test: in vitro; conditions: rat, gh3-tre-luc cells, AC50 (uM) modified / 1000, Tox21_110001=Tox21_111290; viability, 1 nM T3 present, 24 h
recorded_endpoint: CC50 at 24 h

- CCOP(=S)(OCC)Oc1ccc2c(C)c(Cl)c(=O)oc2c1 [Coumaphos]: > 50 µM

* * *

assay: in vitro; conditions: rat, gh3-tre-luc cells, AC50 (uM) modified / 1000, Tox21_110001=Tox21_111475; viability, 1 nM T3 present, 24 h
recorded_endpoint: CC50 at 24 h

* CC(C)C[C@H](CN)CC(=O)O | > 50 µM

* * *

test: in vitro; settings: rat, gh3-tre-luc cells, AC50 (uM) modified / 1000
Structures can show the parent of a compound that is named as a salt.
recorded_endpoint: CC50 at 24 h

• c1ccc(Nc2cccc3ccccc23)cc1 [N-Phenyl-1-naphthylamine] = 64.9 µM
• CN(CC1(C)CCCO1)S(=O)(=O)c1ccc(Cl)c(S(N)(=O)=O)c1 (stereo not drawn) [Mefruside] = > 50 µM
• Cc1ccnc(N)c1 [4-Methylpyridin-2-amine] = > 90 µM
• C1COCCO1 [1,4-Dioxane] = > 90 µM
• CC(=O)Oc1ccc2c(c1)CC[C@@H]1[C@@H]2CC[C@]2(C)[C@@H](O)CC[C@@H]12 [Estradiol acetate] = 22.3 µM
• CC(=O)CC(=O)N(C)C [N,N-Dimethylacetoacetamide] = > 90 µM
• CCN(CC)CCCC(C)Nc1c2ccc(Cl)cc2nc2ccc(OC)cc12 (stereo not drawn) [Quinacrine dihydrochloride dihydrate] = > 50 µM
• Clc1ccc(Cl)c(Cl)c1Cl [1,2,3,4-Tetrachlorobenzene] = > 90 µM
• CCCCOC(=O)CO [Butyl hydroxyacetate] = > 90 µM
• CCN1/C(=C/C=C/C=C/c2sc3ccccc3[n+]2CC)Sc2ccccc21 [Dithiazanine iodide] = 4.14 µM
• O=[N+]([O-])c1cccc(I)c1 [1-Iodo-3-nitrobenzene] = > 90 µM
• CCCCCCCCCCCCCCCCCCOP(=O)([O-])OC1CC[N+](C)(C)CC1 [Perifosine] = > 20 µM
• C=Cc1ccc(C=C)cc1 [1,4-Divinylbenzene] = > 100 µM
• CN(C)C(=O)Nc1ccccc1 [Fenuron] = > 90 µM
• CCCCCCCCCCCCCCCBr [1-Bromopentadecane] = > 50 µM
• CC(=O)Oc1c(C)cc(OCC(O)CNC(C)C)c(C)c1C (stereo not drawn) [Metipranolol] = > 50 µM
• CCCCCCCCCCCC[N+](C)(C)CC(=O)O = 79.2 µM
• CN(CCOc1ccc(CC2SC(=O)NC2=O)cc1)c1ccccn1 (stereo not drawn) [Rosiglitazone maleate] = > 90 µM
• OC1CCCCC1c1ccccc1 (stereo not drawn) [2-Phenylcyclohexanol] = > 90 µM
• O=C(O)CNC(=O)CNC(=O)CNC(=O)CSC(=O)c1ccccc1 [Betiatide] = > 50 µM
• CCCCCCCC [Octane] = > 90 µM

* * *

test system: GH3-TRE-Luc cell line; settings: read-out: AC50 (uM) modified / 1000; Tox21_110001=Tox21_300695; viability, 1 nM T3 present, 24 h
recorded_endpoint: CC50 (µM)

- C=C(C)[C@H]1Cc2c(ccc3c2O[C@@H]2COc4cc(OC)c(OC)cc4[C@@H]2C3=O)O1: 5.41
